assay: Binding of GSAO to dithiol, loss of thiols in DTNB assay; conditions: ring size 6; errors are 1 SD; read-out: Dissociation Constant
measure: Kd (nM)

NC(CCC(=O)NC(CSCC(=O)Nc1ccc([As]=O)cc1)C(=O)NCC(=O)O)C(=O)O (stereo not shown)
200

---

experiment: Binding of GSAO to dithiol, loss of thiols in DTNB assay; conditions: ring size 5; errors are 1 SD; read-out: Dissociation Constant
pKd: −log10 of the molar value.
measure: pKd

NC(CCC(=O)NC(CSCC(=O)Nc1ccc([As]=O)cc1)C(=O)NCC(=O)O)C(=O)O (stereo not shown)
6.89

---

system: 3T3; experiment: Viability of cultured cells, 72 hr; assay type: cell-based, murine; conditions: Mus musculus, NIH3T3, 5% FCS, 0 to 1 mM
pIC50: −log10 of the molar value.
measure: pIC50

NC(CCC(=O)NC(CSCC(=O)Nc1ccc([As]=O)cc1)C(=O)NCC(=O)O)C(=O)O (stereo not shown)
~4.40

---

system: BAE; experiment: Viability of cultured cells, 72 hr; format: cell-based, bovine; details: Bos taurus, 72 h, 10% BCS; >90% confluent
pIC50: −log10 of the molar value.
measure: pIC50

NC(CCC(=O)NC(CSCC(=O)Nc1ccc([As]=O)cc1)C(=O)NCC(=O)O)C(=O)O (stereo not shown)
~5.00

---

Assay: Interaction of GSAO with synthetic, peptide and protein dithiols
Type: binding
Details: read-out: dissociation constants, range over the dithiols
Experimental: FIG. 12. Interaction of GSAO with synthetic, peptide and protein dithiols. […] The concentration of thiol in the reactions was determined from the absorbance of the TNB dianion at 412 nm. […] Binding of GSAO to dithiols was measured from loss of thiols using the DTNB assay described above. The dissociation constant, Kd, for GSAO binding to dithiols was determined by incubating increasing concentrations of GSAO, I, with a fixed dithiol concentration, [S]T, and measuring the remaining dithiol using DTNB. […]
pKd: −log10 of the molar value.
measure: pKd

NC(CCC(=O)NC(CSCC(=O)Nc1ccc([As]=O)cc1)C(=O)NCC(=O)O)C(=O)O (stereo not shown) [GSAO]
5.85 to 6.89

---

test system: BCE; experiment: Viability of cultured cells, 72 hr; format: cell-based, bovine; details: 5% BCS + 10 ng/mL VEGF; >90% confluent, 72 hr
measure: IC50

NC(CCC(=O)NC(CSCC(=O)Nc1ccc([As]=O)cc1)C(=O)NCC(=O)O)C(=O)O (stereo not shown)
~3000 nM

Reference source for all entries: patent US7498406B2
